All values here come from PubChem BioAssay (NCI).

System: SK-MEL-5 melanoma
protocol: NCI-60 one-dose screen, 48 h (100 = growth as untreated, 0 = no growth, -100 = all killed)
condition notes: 10 µM unless noted
The panel holds about 83,000 compounds, 20% with a hit somewhere; the sample as a whole holds those more often.
Measured growth by item
The reply should contain only the number, in %.

smiles_notation=O=S(=O)(Nc1cc(Br)c(O)c2ccccc12)c1ccc(F)cc1 target_of_assay="SK-MEL-5 melanoma" units_of_measure=% assay_value=48.9
smiles_notation=O=C(c1ccc(-c2nc(CSc3nc4ccccc4s3)no2)cc1)N1CCSCC1 target_of_assay="SK-MEL-5 melanoma" units_of_measure=% assay_value=24.6

Endpoint output: growth of COc1ccc2cc(C(=O)c3coc4ccc(O)cc34)ccc2c1 . Value? 99.5

Endpoint output: growth of N#Cc1c(-c2cccs2)cc(-c2cccnc2)[nH]c1=O . Value? 102

Endpoint output: growth of C#CCOc1cccc(Nc2ncnc3c(NC(=O)C=C)cccc23)c1 . Value? 8.31

====

Tested on: NCI-H226 lung
protocol: NCI-60 one-dose screen, 48 h (100 = growth as untreated, 0 = no growth, -100 = all killed)
condition notes: 10 µM unless noted
About 83,000 compounds went through this panel and 20% of them were active in at least one assay; those are over-represented in the sample as a whole. Calls of active or inactive are those of the source. Rule for the calls: active = growth percent below 10; inactive = the rest.
Measured growth by item

# count of solved cases: 5
compound=C/C(=N/O)c1ccc(F)cc1 recorded_endpoint=growth assay_value="91.5% (inactive)"
compound=CCOC(=O)c1c(C)nc2c(c1N)CC(=O)N2Cc1cc(F)cc(Cl)c1 recorded_endpoint=growth assay_value="89.1% (inactive)"
compound=Cc1cc2c([nH]1)CSc1cc(S(=O)(=O)c3ccccc3)c(=O)[nH]c1-2 recorded_endpoint=growth assay_value="32.6% [100 µM] (inactive)"
compound=O=C(Nn1c2c(sc1=NCc1ccccc1)C(=O)c1ccccc1C2=O)c1cc2ccc1CCc1ccc(cc1)CC2 recorded_endpoint=growth assay_value="66.3% (inactive)"
compound=c1ccc(CNc2c3ccccc3nc3ccccc23)cc1 recorded_endpoint=growth assay_value="51.7% (inactive)"

Endpoint output: growth of CC1=Nc2cnc(Nc3ccc(OCCN4CCCC4)cc3)nc2Nc2ccccc21 . Value? 77.8% (inactive)

Endpoint output: growth of O=S(=O)(NCCNc1nccc(-c2c(-c3cccc(F)c3)nc3occn23)n1)c1ccc(Br)cc1 . Value? 75.5% (inactive)

Endpoint output: growth of C[C@@H]1CCC[C@H]1CC(N)C(=O)O (stereo not given in full) . Value? 101% (inactive)

Endpoint output: growth of CN1C(=O)/C(=C/c2ccc(C(=O)Nc3ncc(Cc4ccc(Cl)cc4)s3)cc2)SC1=S . Value? 71.5% (inactive)

Endpoint output: growth of OB(O)c1cccc(-c2nc3ccc4[nH]ncc4c3c3c2CCCC3)c1 . Value? 81.6% (inactive)

====

Tested on: 786-0 renal
protocol: NCI-60 one-dose screen, 48 h
condition notes: 10 µM unless noted
This is part of a sample that, as a whole, favours compounds with a hit. Of some 83,000 tested, about 20% had one in any assay. Active and inactive are the calls of the source. How the source made its calls: active means growth percent below 10; inactive means the rest.
Entry note: the call must match one of True = active, False = inactive

compound=O=C(CCCCCCN1CC(=O)N2[C@H](c3cc(Br)cs3)c3[nH]c4ccccc4c3C[C@H]2C1=O)NO class=False
compound=O=C(O)CNC1=C(Cl)C(=O)c2ccccc2C1=O class=False
compound=CCCCCC(=O)OCC(=O)O[C@@H]1C[C@]2(C(C)C)O[C@@]1(C)[C@@H]1CC[C@@H](C)[C@H]1[C@@H]2OC(=O)/C=C/c1ccccc1 class=False

Here is the next item to consider.
Dear colleague, could you share the recorded outcome for COc1ccc(-c2nnc(-c3ccc4c(c3)nc(-c3ccncc3)n4C3CCCCC3)o2)cc1 when you have a moment? False
